Molecular target: RET (human) (UniProt P07949)
Sequence (P07949 whole entry, looked up): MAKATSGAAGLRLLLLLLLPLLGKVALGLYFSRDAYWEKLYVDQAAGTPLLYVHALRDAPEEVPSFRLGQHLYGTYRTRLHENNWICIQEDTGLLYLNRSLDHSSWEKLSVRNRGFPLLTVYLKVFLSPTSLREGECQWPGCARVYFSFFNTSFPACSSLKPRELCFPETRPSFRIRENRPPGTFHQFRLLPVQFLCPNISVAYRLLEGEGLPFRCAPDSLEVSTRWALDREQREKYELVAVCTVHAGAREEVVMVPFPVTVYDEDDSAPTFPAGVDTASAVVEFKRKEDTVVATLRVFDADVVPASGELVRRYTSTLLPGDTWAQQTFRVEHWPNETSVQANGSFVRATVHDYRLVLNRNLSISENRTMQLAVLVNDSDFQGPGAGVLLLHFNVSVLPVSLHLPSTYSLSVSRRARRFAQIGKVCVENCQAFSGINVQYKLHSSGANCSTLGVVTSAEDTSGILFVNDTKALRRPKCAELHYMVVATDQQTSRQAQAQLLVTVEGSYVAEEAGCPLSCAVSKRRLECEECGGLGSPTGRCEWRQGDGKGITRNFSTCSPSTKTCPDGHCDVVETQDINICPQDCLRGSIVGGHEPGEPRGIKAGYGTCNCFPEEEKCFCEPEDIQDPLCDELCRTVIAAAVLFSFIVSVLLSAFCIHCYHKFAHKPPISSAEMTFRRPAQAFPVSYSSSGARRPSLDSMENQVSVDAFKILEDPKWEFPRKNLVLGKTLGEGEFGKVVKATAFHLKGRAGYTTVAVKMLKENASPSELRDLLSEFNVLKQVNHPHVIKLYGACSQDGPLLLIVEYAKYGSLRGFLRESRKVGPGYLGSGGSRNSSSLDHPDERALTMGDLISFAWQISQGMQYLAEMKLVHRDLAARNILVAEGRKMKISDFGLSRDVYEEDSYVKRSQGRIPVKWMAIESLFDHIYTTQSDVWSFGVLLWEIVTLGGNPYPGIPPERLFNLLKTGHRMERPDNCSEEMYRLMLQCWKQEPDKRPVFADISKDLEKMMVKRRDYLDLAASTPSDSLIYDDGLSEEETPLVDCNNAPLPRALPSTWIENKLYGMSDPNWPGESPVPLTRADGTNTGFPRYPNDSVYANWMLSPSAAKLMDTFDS
Test: radiometric filter-binding kinase assay, Kinase HotSpot
Conditions: compound 0.5 µM; ATP 10 µM
Each entry below carries its reported residual activity.
Your answer is read as %, so omit the unit and give the number.

Solved cases (2 shown):
COc1cc2c(cc1OC)-c1[nH]nc(Nc3cccc(F)c3)c1C2    83.6
O=C1NC(=O)c2cc(Nc3ccc(F)cc3)c(Nc3ccc(F)cc3)cc21    104

Okay, next one:
Input: Give the reported value of residual activity for this record: FC(F)(F)c1ccc(/C=C/c2nc(COc3ccc(CCCCn4ccnn4)cc3)co2)cc1
Output: 101

---

Biological target: UniProt P05129
Experiment: radiometric filter-binding kinase assay, Kinase HotSpot
Conditions: compound 0.5 µM; ATP 10 µM
Quantity Name: residual activity (%)
Respond with the bare value in %.

The examples below pair each entry with its known result.
Nc1ncnc2c1cnn2-c1ccccc1    103
CCc1nc(-c2ccc(OC)cc2)[nH]c1-c1ccncc1    95.5
O=c1c2ccccc2[nH]c(=S)n1CCN1CCC(=C(c2ccc(F)cc2)c2ccc(F)cc2)CC1    100

Input: Return value of residual activity for input N#Cc1c(NC(=O)c2cccc3ccccc23)sc2c1CCCC2 , no commentary.
Output: 95.4

Input: Quickly give me recorded residual activity for N#CCCc1ccc2c(c1)-c1[nH]c3ccc([N+](=O)[O-])cc3c1CC(=O)N2
Output: 93.3
